Tested on: L1210
Assay: Cytotoxicity against murine leukemia L1210 cells
Type: functional, cell-based, Mus musculus
Conditions: Mus musculus, L1210; read-out: IC50
Parameter IC50: see the listing below.
Write the answer as a number in µg/mL, unit excluded.

compound="CC(=O)O[C@@]12CO[C@@H]1C[C@H](O)[C@@]1(C)C(=O)[C@H](O)C3=C(C)[C@@H](OC(=O)[C@H](O)C(NC(=O)C4CCC4)c4ccccc4)C[C@@](O)([C@@H](OC(=O)c4ccccc4)[C@H]21)C3(C)C (some centres undefined)" study_target=L1210 unit_symbol=µg/mL numeric_readout=0.95

We next turn to a different compound, shown below.
Suppose we examine the compound `C/C=C(\C)C(=O)O[C@@H]1C2=C(C)[C@@H](O)C[C@@]2(C(C)(C)O)[C@@H](OC(C)=O)[C@@H]2[C@]3(OC(C)=O)CO[C@@H]3C[C@H](OC(C)=O)[C@@]2(C)[C@H]1OC(C)=O` ; what IC50 value has been reported? 4

* * *

Parameter IC50: see the listing below.
Test system: L1210
Test: Cytotoxicity against murine leukemia L1210 cells
Type: functional, cell-based, Mus musculus
Conditions: Mus musculus, L1210; read-out: IC50
Write the answer as a number in µg/mL, unit excluded.

substance_smiles=CC(=O)O[C@H]1C[C@@H]2OC[C@@]2(OC(C)=O)[C@H]2[C@H](OC(=O)c3ccccc3)[C@]3(O)C[C@H](O)C(C)=C([C@@H](O)[C@H](O)[C@]12C)C3(C)C study_target=L1210 endpoint_name=IC50 unit_symbol=µg/mL numeric_readout=0.27

We next turn to a different compound, shown below.
Suppose we examine the compound `C=C1[C@@H](OC(=O)/C=C/c2ccccc2)C[C@H](OC(C)=O)[C@@]2(CO)[C@@H](OC(C)=O)[C@H](OC(C)=O)[C@]3(O)[C@@]4(C)CO[C@]3(C)C(=O)C[C@H]4[C@@H](OC(C)=O)[C@H]12` ; what IC50 value has been reported? 3.8

* * *

Parameter IC50: see the listing below.
System: L1210
Test: Cytotoxicity against murine leukemia L1210 cells
Format: functional, cell-based, Mus musculus
Conditions: Mus musculus, L1210; read-out: IC50

Look over these answered cases.
compound=CC(=O)O[C@H]1C[C@H]2[C@@H](OC(C)=O)/C=C3\C[C@](C)(C(=O)[C@H](O)C(=C1C)C2(C)C)[C@@H](OC(C)=O)C[C@@H]3OC(=O)/C=C/c1ccccc1 result="> 10 µg/mL"
compound="CCCCCC(=O)NC(c1ccccc1)[C@@H](O)C(=O)O[C@H]1C[C@@]2(O)[C@@H](OC(=O)c3ccccc3)[C@@H]3[C@]4(OC(C)=O)CO[C@@H]4C[C@H](O)[C@@]3(C)C(=O)[C@H](O)C(=C1C)C2(C)C (stereo partly drawn)" result="0.24 µg/mL"

We next turn to a different compound, shown below.
Suppose we examine the compound C=C1[C@@H](OC(=O)CC(c2ccccc2)N(C)C)CC[C@@]2(C)[C@@H](OC(C)=O)[C@H](OC(C)=O)C3=C(C)C(=O)C[C@@H]([C@@H](OC(C)=O)[C@H]12)C3(C)C (stereo partly drawn) ; what IC50 value has been reported? > 10 µg/mL

* * *

Test system: L1210
Assay: Cytotoxicity against murine leukemia L1210 cells
Assay type: functional, cell-based, Mus musculus
Settings: Mus musculus, L1210; read-out: IC50
Endpoint name: IC50 (µg/mL)
Write the answer as a number in µg/mL, unit excluded.

Look over these answered cases.
compound=CC(=O)O[C@H]1C[C@H]2OC[C@@]2(OC(C)=O)[C@H]2[C@H](OC(C)=O)[C@]3(C(C)(C)O)C[C@H](OC(=O)/C=C/c4ccccc4)C(C)=C3[C@@H](OC(=O)c3ccccc3)[C@H](OC(C)=O)[C@]12C endpoint_name=IC50 numeric_readout=3.8
compound=C=C1[C@@H](OC(=O)/C=C/c2ccccc2)C[C@H](OC(C)=O)[C@@]2(C)[C@@H](OC(C)=O)[C@H](OC(C)=O)[C@@]3(O)C(C)=C(OC(C)=O)C[C@@H]([C@@H](OC(C)=O)[C@H]12)C3(C)C endpoint_name=IC50 numeric_readout=3
compound=C=C1[C@@H](OC(=O)/C=C/c2ccccc2)C[C@H](OC(C)=O)[C@]2(C)[C@@H]1C[C@@H]1C[C@H](OC(C)=O)C(C)=C([C@@H](OC(C)=O)[C@@H]2OC(C)=O)C1(C)C endpoint_name=IC50 numeric_readout=4.9

Suppose we examine the compound `C=C1[C@@H](OC(=O)/C=C/c2ccccc2)C[C@H](OC(C)=O)[C@]2(C)[C@@H]1C[C@]1(C(C)(C)O)C[C@H](OC(C)=O)C(C)=C1[C@@H](O)[C@@H]2OC(C)=O` ; what IC50 value has been reported? 1.2
